Sourced from ChEMBL document CHEMBL2321831

Experiment: Plasma protein binding in human at 10 ug/mL by ultrafiltration method
Assay type: ADME, cell-free
Settings: read-out: PPB (converted)
quantity: fraction unbound at 10 ug/mL

compound.smiles	quantity	data.value
C[C@H]1COc2c(N3CCN(C)CC3)c(F)cc3c(=O)c(C(=O)O)cn1c23.C[C@H]1COc2c(N3CCN(C)CC3)c(F)cc3c(=O)c(C(=O)O)cn1c23.O	fraction unbound at 10 ug/mL	0.678

---

Test: Cmax in cynomolgus monkey serum at 5 mg/kg, po
Format: ADME, organism-based, Macaca fascicularis
Design: dose 5 mg/kg, route oral
quantity: Cmax

molecule	data.value
COc1c(N2CC3(CC3)[C@](C)(N)C2)c(F)cc2c(=O)c(C(=O)O)cn([C@@H]3C[C@@H]3F)c12	2200 ng/mL
COc1c(N2C[C@@H]3CCCN[C@@H]3C2)c(F)cc2c(=O)c(C(=O)O)cn(C3CC3)c12.Cl.O [MOXIFLOXACIN HYDROCHLORIDE HYDRATE]	1030 ng/mL
C[C@H]1COc2c(N3CCN(C)CC3)c(F)cc3c(=O)c(C(=O)O)cn1c23.C[C@H]1COc2c(N3CCN(C)CC3)c(F)cc3c(=O)c(C(=O)O)cn1c23.O	1920 ng/mL
COc1c(N2C[C@@H](N)C3(CC3)C2)c(F)cc2c(=O)c(C(=O)O)cn([C@@H]3C[C@@H]3F)c12.Cl.O	1270 ng/mL

---

// reported MIC per item
System: Moraxella catarrhalis
Assay: Antibacterial activity against Moraxella catarrhalis ATCC 25238 after 18 hrs by microbroth dilution method
Format: functional
Conditions: ATCC 25238, 18 h

compound	MIC, mg/L
COc1c(N2C[C@@H]3CCCN[C@@H]3C2)c(F)cc2c(=O)c(C(=O)O)cn(C3CC3)c12	0.05
O=C(O)c1cn(C2CC2)c2cc(N3CCNCC3)c(F)cc2c1=O	0.025
C[C@H]1COc2c(N3CCN(C)CC3)c(F)cc3c(=O)c(C(=O)O)cn1c23.C[C@H]1COc2c(N3CCN(C)CC3)c(F)cc3c(=O)c(C(=O)O)cn1c23.O	0.025
COc1c(N2CC(C)(N)C3(CC3)C2)c(F)cc2c(=O)c(C(=O)O)cn([C@@H]3C[C@@H]3F)c12 (stereo partly specified)	0.05
COc1c(N2CC3(CC3)[C@](C)(N)C2)c(F)cc2c(=O)c(C(=O)O)cn([C@@H]3C[C@@H]3F)c12	0.05
COc1c(N2C[C@@H](N)C3(CC3)C2)c(F)cc2c(=O)c(C(=O)O)cn([C@@H]3C[C@@H]3F)c12.Cl.O	0.012

---

System: Haemophilus influenzae
Test: Antibacterial activity against Haemophilus influenzae ATCC 49247 after 18 hrs by microbroth dilution method
Type: functional
Details: ATCC 49247, 18 h

molecule	tested.target	bound.sign	MIC (µg/mL)
COc1c(N2C[C@@H]3CCCN[C@@H]3C2)c(F)cc2c(=O)c(C(=O)O)cn(C3CC3)c12	Haemophilus influenzae	=	0.012
COc1c(N2CC(C)(N)C3(CC3)C2)c(F)cc2c(=O)c(C(=O)O)cn([C@@H]3C[C@@H]3F)c12 (stereo partly specified)	Haemophilus influenzae	=	0.006
C[C@H]1COc2c(N3CCN(C)CC3)c(F)cc3c(=O)c(C(=O)O)cn1c23.C[C@H]1COc2c(N3CCN(C)CC3)c(F)cc3c(=O)c(C(=O)O)cn1c23.O	Haemophilus influenzae	=	0.012
COc1c(N2CC3(CC3)[C@](C)(N)C2)c(F)cc2c(=O)c(C(=O)O)cn([C@@H]3C[C@@H]3F)c12	Haemophilus influenzae	=	0.012
O=C(O)c1cn(C2CC2)c2cc(N3CCNCC3)c(F)cc2c1=O	Haemophilus influenzae	=	0.006
COc1c(N2C[C@@H](N)C3(CC3)C2)c(F)cc2c(=O)c(C(=O)O)cn([C@@H]3C[C@@H]3F)c12.Cl.O	Haemophilus influenzae	<	0.003
